Recorded viability at 24 h, 10 µM for the following compounds
protocol-notes: Cytotoxicity
Format: cell-based
cond: mouse, BV2 microglial cells
Please give a number only; it is taken to be in %.

Recorded results for 6 compounds are shown here.
{"columns": ["compound", "measured-parameter", "recorded-measurement"],
 "data": [
  ["COC1=CC(=O)c2ccc3cc(OC)c(OC)c(OC)c3c2C1=O", "viability at 24 h, 10 µM", 95.6],
  ["O=C(O)c1ccc(O)cc1 [Compound 10, p-hydroxybenzoic acid]", "viability at 24 h, 10 µM", 96.6],
  ["COc1cc(O)cc2c1-c1c(O)cccc1CC2", "viability at 24 h, 10 µM", 108],
  ["COc1cc2ccc3cccc(O)c3c2c(OC)c1O", "viability at 24 h, 10 µM", 101],
  ["O=C(O)c1ccc(CO)cc1 [Compound 15, 4-hydroxymethyl benzoic acid]", "viability at 24 h, 10 µM", 105],
  ["COc1cc(O)c(Cc2ccc(O)cc2)c2c1-c1ccc(O)cc1CC2", "viability at 24 h, 10 µM", 97.9]
]}

# next compound below
For the compound COc1cc(C(=O)O)ccc1O , report viability at 24 h, 10 µM.
99.7
